# System: MS2 coat protein
# ASSAY: apparent KD of MS2 coat protein; designed switch direction (-1 OFF switch, 1 ON switch): 1; higher = weaker reporter binding
# CONDITIONS_USED: input ligand: microRNA oligo, concentration not stated
METRIC: apparent KD of MS2 coat protein (nM)

[
  {
    "SEQUENCE": "GCGAGCGUACUUGCUACAUGAGGAUCACCCAUGUUUUAUGGACAGGAUAUGGUACCGUUUCGGUACCAGAAGGGUUCACAUGUA [JL SSNG3 3.83] (Eterna round: R96, puzzle: Same State NG 3)",
    "RECORDED_VALUE": 150
  },
  {
    "SEQUENCE": "CUGAGCAAUCAAGGAUAUCACGUCGAAUAGACGUGAGAAGGUGAUCAUAACAUGAGGAUCACCCAUGUAUUACAUGAAGCUCAG [SSNG1/1-A1] (Eterna round: R96, puzzle: Same State NG 1)",
    "RECORDED_VALUE": 399
  },
  {
    "SEQUENCE": "GCGAAAUGAUGAAACAUGAGGAUCACCCAUGUAACGAGAGAUGAGGAUAUCGGAAAGGGAGGAGACGAGAAGGCAUGGUCACGC [AK SSNG3-V2-25.1] (Eterna round: R96, puzzle: Same State NG 3)",
    "RECORDED_VALUE": 43
  },
  {
    "SEQUENCE": "UUAAUAAUGUAAGGAUAUACAUGAGGAUUUCUCGUAGAAGGUACAGGACAUGAGGAUCACCCAUGUAUCGCUCCGUAGAGCGUA [Mat - Same State NG 1 - JL mod - D23] (Eterna round: R96, puzzle: Same State NG 1)",
    "RECORDED_VALUE": 228
  }
]

====

# System: MS2 coat protein
# ASSAY: apparent KD of MS2 coat protein; designed switch direction (-1 OFF switch, 1 ON switch): 1; higher = weaker reporter binding
# CONDITIONS_USED: input ligand: microRNA oligo, concentration not stated
METRIC: apparent KD of MS2 coat protein

[
  {
    "SEQUENCE": "GAGUGGUAAAGAGGAUAUGCAUUGUUAUUAAAUGCAGAAGGUUUUAACAUGAGGAUCACCCAUGUAGGACUAUUCCUGUGUUUC [Parity 65 - Jieux - Same State NG 1] (Eterna round: R96, puzzle: Same State NG 1)",
    "RECORDED_VALUE": "11.4 nM"
  },
  {
    "SEQUENCE": "UAGUGAUUGCAAGGAUAUGCUAGUUUUUAUUUGUGUUUGAUAACAAACAUGAGGAUCACCCAUGUGCAGAAGGUGCAAGAUAUG [JR_SSNG2_Sub078] (Eterna round: R96, puzzle: Same State NG 2)",
    "RECORDED_VALUE": "361 nM"
  },
  {
    "SEQUENCE": "GGAUGAUUAACAGGAUAUCAUUUGUAAAUUGGUUGAGAAGGGUUAAUGAUUUACACGACCUGUUACAUGAGGAUCACCCAUGUU [SameState NG1 #2] (Eterna round: R96, puzzle: Same State NG 1)",
    "RECORDED_VALUE": "33.8 nM"
  },
  {
    "SEQUENCE": "CGUGAACAUGAGGAUCACCCAUGUGAAAAACGUAGAGGAUAUGUCACAUGAGUGUAAAAGACAGAAGGCUAUCGUG [Mod 2 of Round 1 starryjess' Mod pf Nando] (Eterna round: R96, puzzle: Same State 1)",
    "RECORDED_VALUE": "172 nM"
  },
  {
    "SEQUENCE": "UUGAAGAAUUAAGGAUAUUGAAUACAUAUGUUUAACAUGAGGAUCACCCAUGUGGGUUGCGGUAUCGAGAAGGUAAAUAAAUAG [Mat - Same State NG 2 - JL mod - D3] (Eterna round: R96, puzzle: Same State NG 2)",
    "RECORDED_VALUE": "110 nM"
  },
  {
    "SEQUENCE": "GCUCGCACGAUGACCCACAUGAGGAUCACCCAUGUGUGUGGGUAGGAUAUCUAUAUUAAGGAUUUAGAGAAGGGCCGAGCGAGC [SameState NG3 #22] (Eterna round: R96, puzzle: Same State NG 3)",
    "RECORDED_VALUE": "419 nM"
  },
  {
    "SEQUENCE": "GCUCGAUGUGCUGUCUACAUGAGGAUCACCCAUGUAGAUGCGGAGGAUAUCUACGUGCUUUAUGUAGAGAAGGUCGUAUCGAGC [SameState NG3 #84] (Eterna round: R96, puzzle: Same State NG 3)",
    "RECORDED_VALUE": "50.2 nM"
  },
  {
    "SEQUENCE": "CUGAGCAGUCAAGGAUAUCACGUCGAUUAGACGUGAGAAGGUGAUUAAUACAUGAGGAUCACCCAUGUAAUACAUGAAGCUCAG [SSNG1/11-A2] (Eterna round: R96, puzzle: Same State NG 1)",
    "RECORDED_VALUE": "38.4 nM"
  },
  {
    "SEQUENCE": "UAUUUAAUCAUAGGAUAUAGUGUGUAAUUUGGACUAGAAGGAUGAAACAUGAGGAUCACCCAUGUGGUAAAUGGGAUACAUUCC [JR_SSNG1_Sub100] (Eterna round: R96, puzzle: Same State NG 1)",
    "RECORDED_VALUE": "59.8 nM"
  }
]
